Data provenance: patent US20200181261A1

Target: T1, Macaca fascicularis CEACAM6-Domain 1-His (expressed in E. coli) (Macaca fascicularis)
T1 construct: entry includes the His tag; also called TPP-2453; Recombinant single domain 1 of Macaca fascicularis CEACAM6
T1 chain: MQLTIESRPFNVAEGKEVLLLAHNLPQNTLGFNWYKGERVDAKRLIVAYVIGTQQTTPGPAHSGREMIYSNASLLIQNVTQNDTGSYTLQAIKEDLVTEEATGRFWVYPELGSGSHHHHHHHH
Assay: SPR, antibody captured, antigen as analyte
value_kind: Kd (nM)
Answer format: numeric, nM implied, no suffix.

Consider the reported Kd for these binders:
I would be grateful if you could share the reported Kd for TPP-3705 (antibody, human IgG2, kappa, V domains shown, also called 090E-M007-A09-Mat1-hIgG2-hIgG2Kappa) VH: EVQLVESGGGLVQPGGSLRLSCAASGFTFSLYQMHWVRQAPGKGLEWVSWISFSGGNTGYADSVKGRFTISRDNSKNTLYLQMNSLRAEDTAVYYCARATGYSSPWYLDPWGQGTLVTVSS VL: DIQMTQSPSSLSASVGDRVTITCQASHEIDNYLNWYQQKPGKAPKLLIYDAYWLKTGVPSRFSGSGSGTDFTLTISSLQPEDIATYYCQGYDDLSVTFGGGTKVDIKR .
2.7

I would be grateful if you could share the reported Kd for TPP-3821 (antibody, human IgG2, kappa, V domains shown, humanized from TPP-3187, human IgG2; also called 3187HU2-hIgG2Kappa) VH: QVTLRESGPALVKPTQTLTLTCTFSGFSLSTYGIGVGWIRQPPGKALEWLAHIWWNDNKYYSTSLKTRLTISKDTSKNQVVLTMTNMDPVDTATYYCARISLPYFDYWGQGTLVTVSS VL: DIQLTQSPSFLSASVGDRVTITCKASQNVGTAVAWYQQKPGKAPKLLIYSASNRYTGVPSRFSGSGSGTEFTLTISSLQPEDFATYYCQQYNNYPLTFGGGTKVEIKR .
4.7

I would be grateful if you could share the reported Kd for TPP-2971 (antibody, mouse IgG1, V domains shown, murine hybridoma antibody, mouse IgG1; also called 792.15H12C9) VH: QVTLKESGPGILQPSQTLSLTCSFSGFSLSTYGIGVGWIRQPSGKDLEWLAHIWWNDNKYYNTALKSRLTISKDTSNNQVFLKIASVDTADTATYYCARISLPYFDYWGQGTTLTVSS VL: DIVMTQSQKFMSTSVGDRVSITCKASQNVGTAVAWYQQKPGQSPKLLIYSASNRYTGVPDRFTGSGSGTDFTLTISNMQSEDLADYFCQQYSSYPLTFGAGTKLELK .
5.3

I would be grateful if you could share the reported Kd for TPP-3323 (antibody, human IgG2, kappa, V domains shown, human IgG2 chimera; also called TPP-3187X1-hIgG2; hIgG2 chimera of TPP-3187) VH: QVTLKESGPGILQPSQTLSLTCSFSGFSLTTYGIGVGWIRQPSGKGLEWLAHIWWNDNKYYNTALKSRLTISKDTSNNQVFLKIASVDTADTATYYCARISLPYFDYWGQGTTLTVSS VL: DIVMTQSQKFMSTSVGDRVSITCKASQNVGTAVAWYQQKPGQSPKLLIYSASNRYTGVPDRFTGSGSGTDFTLTISNMQSEDLADYFCQQYNNYPLTFGAGTKLELKR .
6.9

I would be grateful if you could share the reported Kd for TPP-3820 (antibody, human IgG2, kappa, V domains shown, humanized from TPP-3187, human IgG2; also called 3187HU1-hIgG2Kappa) VH: QVTLRESGPALVKPTQTLTLTCTFSGFSLTTYGIGVGWIRQPPGKGLEWLAHIWWNDNKYYSTSLKTRLTISKDTSKNQVVLTMTNMDPVDTATYYCARISLPYFDYWGQGTLVTVSS VL: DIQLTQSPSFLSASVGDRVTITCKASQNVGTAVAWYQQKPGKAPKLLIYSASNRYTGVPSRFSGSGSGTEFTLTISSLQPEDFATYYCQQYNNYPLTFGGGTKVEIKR .
5.2

Could you now consider this next binder?
I would be grateful if you could share the reported Kd for TPP-3707 (antibody, human IgG2, kappa, V domains shown, also called 090E-M007-A09-Mat2-hIgG2-hIgG2Kappa) VH: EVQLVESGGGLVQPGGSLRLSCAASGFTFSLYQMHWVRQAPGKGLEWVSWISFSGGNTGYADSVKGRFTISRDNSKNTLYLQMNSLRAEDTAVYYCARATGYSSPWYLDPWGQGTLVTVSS VL: DIQMTQSPSSLSASVGDRVTITCQASHEIDNYLNWYQQKPGKAPKLLIYDAYWSKTGVPSRFSGSGSGTDFTLTISSLQPEDIATYYCQGYDDLSVTFGGGTKVDIKR .
2.4
